target-under-test: CD80-CD28 interaction (Homo sapiens)
assay-procedure: Homogenous Time Resolved Fluorescence (HTRF) assay, cell free
Assay type: binding
run-conditions: cell free HTRF assay; concentration series 100 μM-1.7 nM; 4 hours at room temperature; read-out: Activity (EC50 in the HTRF assay)
endpoint-label: EC50

>>> experimental_result("O=C(NCCCn1ccnc1)Nc1ccc(-n2[nH]c3c(nnc4ccccc43)c2=O)cc1 [Example 298]")
"< 1000 nM"

Input: Record lookup: for CD80-CD28 interaction (Homo sapiens), what EC50 belongs to O=C(NCCCCN1CCCC1)Nc1ccc(-n2[nH]c3c(nnc4ccccc43)c2=O)cc1 [Example 228] ?
Output: < 1000 nM

Input: Record lookup: for CD80-CD28 interaction (Homo sapiens), what EC50 belongs to CN(C)CCCNC(=O)c1ccc(-n2[nH]c3c(nnc4c(F)cc(F)cc43)c2=O)cc1 [Example 414] ?
Output: < 1000 nM

Input: Record lookup: for CD80-CD28 interaction (Homo sapiens), what EC50 belongs to CC(C)(C)NC(=O)c1ccc(-n2[nH]c3c(nnc4cccc(F)c43)c2=O)cc1 [Example 400] ?
Output: < 1000 nM

Input: Record lookup: for CD80-CD28 interaction (Homo sapiens), what EC50 belongs to O=C(NC1CC1c1ccccc1)c1ccc(-n2[nH]c3c(nnc4ccccc43)c2=O)cc1 (centres unmarked) [Example 315] ?
Output: 1000 to 10000 nM

Input: Record lookup: for CD80-CD28 interaction (Homo sapiens), what EC50 belongs to O=C(NC1CN2CCC1CC2)c1ccc(-n2[nH]c3c(nnc4c(F)cccc43)c2=O)cc1 (centres unmarked) [Example 353] ?
Output: < 1000 nM

Input: Record lookup: for CD80-CD28 interaction (Homo sapiens), what EC50 belongs to COc1ccc(CNC(=O)c2ccc(-n3[nH]c4c(nnc5ccccc54)c3=O)cc2)cc1 [Example 240] ?
Output: < 1000 nM

Input: Record lookup: for CD80-CD28 interaction (Homo sapiens), what EC50 belongs to CC(CCc1ccccc1)NC(=O)Nc1ccc(-n2[nH]c3c(nnc4ccccc43)c2=O)cc1 (centres unmarked) [Example 304] ?
Output: > 10000 nM

Input: Record lookup: for CD80-CD28 interaction (Homo sapiens), what EC50 belongs to O=C(NCC1CCCCC1)c1ccc(-n2[nH]c3c(nnc4ccccc43)c2=O)cc1 [Example 244] ?
Output: 1000 to 10000 nM

Input: Record lookup: for CD80-CD28 interaction (Homo sapiens), what EC50 belongs to O=C(NCCc1cccs1)Nc1ccc(-n2[nH]c3c(nnc4ccccc43)c2=O)cc1 [Example 289] ?
Output: 1000 to 10000 nM

Input: Record lookup: for CD80-CD28 interaction (Homo sapiens), what EC50 belongs to CC(C)(C)NC(=O)c1ccc(-n2[nH]c3c(nnc4c(F)cccc43)c2=O)cc1 [Example 375] ?
Output: < 1000 nM

Input: Record lookup: for CD80-CD28 interaction (Homo sapiens), what EC50 belongs to COc1ccc(CNC(=O)c2ccc(-n3[nH]c4c(nnc5ccccc54)c3=O)cc2)c(OC)c1 [Example 236] ?
Output: > 10000 nM

Input: Record lookup: for CD80-CD28 interaction (Homo sapiens), what EC50 belongs to CCCCOCCCNC(=O)c1ccc(-n2[nH]c3c(nnc4c(F)cccc43)c2=O)cc1 [Example 354] ?
Output: < 1000 nM

Input: Record lookup: for CD80-CD28 interaction (Homo sapiens), what EC50 belongs to O=C(NCCCCN1CCSCC1)c1ccc(-n2[nH]c3c(nnc4c(F)cccc43)c2=O)cc1 [Example 419] ?
Output: < 1000 nM

Input: Record lookup: for CD80-CD28 interaction (Homo sapiens), what EC50 belongs to CC(C)(C)OC(=O)CCNC(=O)Nc1ccc(-n2[nH]c3c(nnc4ccccc43)c2=O)cc1 [Example 223] ?
Output: 1000 to 10000 nM

###

As shown below, each of these molecules has a reported pEC50 value.
target-under-test: CD80-CD28 interaction (Homo sapiens, UniProt P33681)
assay-procedure: Homogenous Time Resolved Fluorescence (HTRF) assay, cell free
Type: binding
run-conditions: cell-free HTRF, concentration series 100 μM-1.7 nM, 4 hours at room temperature; read-out: Activity (EC50 in the HTRF assay)
pEC50: −log10 of the molar value.

>>> experimental_result("O=C(NC1CCNC1)c1ccc(-n2[nH]c3c(nnc4c(F)cccc43)c2=O)cc1 (stereo not shown) [Example 488]")
"> 6.00"

Input: Record request: pEC50 value, item CC(N)C(C)CNC(=O)c1ccc(-n2[nH]c3c(nnc4c(F)cccc43)c2=O)cc1 (stereo not shown) [Example 443]
Output: > 6.00

Input: Record request: pEC50 value, item NC1CCCC(NC(=O)c2ccc(-n3[nH]c4c(nnc5c(F)cccc54)c3=O)cc2)C1 (stereo not shown) [Example 499]
Output: > 6.00

###

target-under-test: CD80-CD28 interaction (Homo sapiens, UniProt P33681)
assay-procedure: Homogenous Time Resolved Fluorescence (HTRF) assay, cell free
Type: binding
run-conditions: cell-free HTRF, compound concentration series 100 μM-1.7 nM, 4 hours at room temperature; read-out: Activity (EC50 in the HTRF assay)
endpoint-label: EC50

Input: Record request: EC50 value, item CC(C)CC(C)NC(=O)c1ccc(-n2[nH]c3c(nnc4ccccc43)c2=O)cc1 (centres unmarked) [Example 55]
Output: < 1000 nM

###

target-under-test: CD80-CD28 interaction (Homo sapiens, UniProt P33681)
assay-procedure: Homogenous Time Resolved Fluorescence (HTRF) assay, cell free
Format: binding
run-conditions: cell-free HTRF, compound concentration series 100 μM-1.7 nM, 4 hours at room temperature; read-out: Activity (EC50 in the HTRF assay)
pEC50: −log10 of the molar value.
As shown below, each of these compounds has a reported pEC50 value.

Example results:
>>> experimental_result("O=C(Nc1ccc(-n2[nH]c3c(nnc4ccccc43)c2=O)cc1)NC1CCC(O)CC1 (centres unmarked)")
"5.00 to 6.00"
>>> experimental_result("O=C(Nc1ccc(N2CCCCC2)cc1)c1ccc(-n2[nH]c3c(nnc4ccccc43)c2=O)cc1")
"5.00 to 6.00"
>>> experimental_result("CC1C(NC(=O)Nc2ccc(-n3[nH]c4c(nnc5ccccc54)c3=O)cc2)CC2CC1C2(C)C (centres unmarked) [Example 202]")
"< 5.00"

Input: Record request: pEC50 value, item "CN1CCC(NC(=O)Nc2ccc(-n3[nH]c4c(nnc5ccccc54)c3=O)cc2)CC1"
Output: > 6.00

Input: Record request: pEC50 value, item "CC(C)(C)OC(=O)NCCCCNC(=O)Nc1ccc(-n2[nH]c3c(nnc4ccccc43)c2=O)cc1"
Output: < 5.00

Input: Record request: pEC50 value, item "CCNCCNC(=O)Nc1ccc(-n2[nH]c3c(nnc4ccccc43)c2=O)cc1"
Output: > 6.00

Input: Record request: pEC50 value, item "O=C(NCCCNC(=O)c1ccc(-n2[nH]c3c(nnc4ccccc43)c2=O)cc1)OCc1ccccc1"
Output: 5.00 to 6.00

Input: Record request: pEC50 value, item CC(NC(=O)c1ccc(-n2[nH]c3c(nnc4ccccc43)c2=O)cc1)C(C)(C)C (centres unmarked)
Output: 5.00 to 6.00

Input: Record request: pEC50 value, item "CC(C)CNC(=O)Nc1ccc(-n2[nH]c3c(nnc4ccccc43)c2=O)cc1"
Output: 5.00 to 6.00

Input: Record request: pEC50 value, item "CC(C)=CCC/C(C)=C/CNC(=O)c1ccc(-n2[nH]c3c(nnc4ccccc43)c2=O)cc1"
Output: < 5.00

Input: Record request: pEC50 value, item "C=C(C)C(=O)OCCNC(=O)c1ccc(-n2[nH]c3c(nnc4ccccc43)c2=O)cc1"
Output: 5.00 to 6.00

Input: Record request: pEC50 value, item "CC(C)(C)OC(=O)NCCCCCCNC(=O)Nc1ccc(-n2[nH]c3c(nnc4ccccc43)c2=O)cc1"
Output: 5.00 to 6.00

Input: Record request: pEC50 value, item "CCNCCNC(=O)c1ccc(-n2[nH]c3c(nnc4ccccc43)c2=O)cc1"
Output: > 6.00

###

As shown below, each of these compounds has a reported EC50 value.
target-under-test: CD80-CD28 interaction (Homo sapiens, UniProt P33681)
Sequence (P33681 35-242 limits assumed): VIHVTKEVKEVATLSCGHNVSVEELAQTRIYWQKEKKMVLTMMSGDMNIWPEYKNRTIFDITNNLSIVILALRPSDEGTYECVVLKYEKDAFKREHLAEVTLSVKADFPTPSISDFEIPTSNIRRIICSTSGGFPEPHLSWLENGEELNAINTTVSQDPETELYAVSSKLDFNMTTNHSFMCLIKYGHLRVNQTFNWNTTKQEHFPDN
assay-procedure: Homogenous Time Resolved Fluorescence (HTRF) assay, cell free
Type: binding
run-conditions: cell-free HTRF, compound concentration series 100 μM-1.7 nM, 4 hours at room temperature; read-out: Activity (EC50 in the HTRF assay)

Example results:
>>> experimental_result("CCCCOCCCNC(=O)c1ccc(-n2[nH]c3c(nnc4ccccc43)c2=O)cc1")
"< 1 µM"
>>> experimental_result("O=C(NCCOc1ccccc1)Nc1ccc(-n2[nH]c3c(nnc4ccccc43)c2=O)cc1")
"1 to 10 µM"
>>> experimental_result("O=C(Nc1ccccc1)c1ccc(-n2[nH]c3c(nnc4ccccc43)c2=O)cc1")
"1 to 10 µM"
>>> experimental_result("CC(NC(=O)c1ccc(-n2[nH]c3c(nnc4ccccc43)c2=O)cc1)C1CCCCC1 (stereo not drawn) [Example 120]")
"1 to 10 µM"

Input: Record request: EC50 value, item CC(CCc1ccccc1)NC(=O)c1ccc(-n2[nH]c3c(nnc4ccccc43)c2=O)cc1 (stereo not drawn)
Output: > 10 µM
